// data source = the supplement of paper PMC10567573

Exercise: for every item that follows, state its recorded protein stability index.
B1: SLC22A15 (parent)
chain: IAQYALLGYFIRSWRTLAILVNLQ

variants of: B1; experiment: protein stability index of a GFP-peptide fusion (GPS, HEK-293T) (PSI 1-6); higher = more stable; details: c terminus: a fixed tail appended;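 note: lentivirally expressed fusions sorted by FACS into six bins by GFP to DsRed ratio, PSI derived from sequencing read proportions per bin multiplied by bin number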
Numbers only.

Reference set, count: 3
Q24G ... 2.66
A18I ... 3.41
R12F ... 3.61

Below is a list of variants. For each, state its recorded protein stability index.
1. R12I
2. G8L
3. A18D
4. L20C
5. W14Y
6. A2P

[3.48, 1.88, 2.57, 3.7, 3.53, 4.19]

For every item below, please supply its protein stability index.
1. N22T
2. L6H
3. L20N

[1.9, 1.67, 2]

# per-item lookup of protein stability index; items listed below
1. L17V
2. Y4C
3. Y9I
4. V21Q
5. S13N
6. I11F
7. F10V

[4.09, 3.29, 2.71, 2.24, 2.56, 3.45, 3.1]
